From: the supplement of paper PMC6555819

System: THRa:RXRa (NR concentration 90 nM, RXRa partner concentration 90 nM)
Assay: PBM binding z-score (relative to random genomic background probes); higher = stronger binding; sequences stand for … in GC…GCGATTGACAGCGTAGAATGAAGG
endpoint label: PBM binding z-score

- CCTGCGAGGTCAATGGTCAGCTAAAGCAGCTCGC: 3.8
- GTTGCTAGGTCAACTGATGGTCAGCTAAAGCTCG: 3.09
- ATCGAAAGGTCGACGAGGTGAGTACACACCGTTT: 3.7
- ATCGAAAGGTCGATGTGAGTATAGAGAAAGGGAA: 1.37
- CCAGACAGGTGGGAAGGTAACTCAGCCTCGATTA: -0.392
- TATACAGGGTCAAAGGCCGGAGTACGAATGTCGA: 3.34
- CCTCGGAGGACAACAGGTGGTCAGAGCTGCCAGA: 0.397
- CGTCCAAGGTCAAGGTCAGTGATAGAGACTCGAA: 4.48
- TCGAGTCGGTTAGTCGGGGCATTCAGCCAACATA: 0.291
- TGAATGAGGTTAAAGTTCAGGGAACGTGGCGTCG: 3.63
- TCTAGCAGGACAGAGGGTCACTCAAGAGGTACGG: 1.86
- ACAGACAGGTGAGTGAAGGTGACTCAGCTGGACG: 2
- GACACAGGGTCAAGGCCAGAGTACGCGTATTGAT: 3.64
- CAAACTACGTCACCGGAAGGTCAAAGTCCGCATG: 2.88
- TTACCAAGGTGAGCTGAGTTCGTTGATCCAACTC: 2.71
- GGAACGAGAGCAAAGTTGATAGCATCTGTCGACG: -0.711
- ATCTCTAGGTAAGACTCAGTTCCGTGAAGAACGC: 0.287
- TCTTGTAGATCAAAGGGTAAGAAAGCCGAAGCCT: -0.022
- ATCTCTAGGTAACCAAGTTCAGTAAATGCCGAAC: 1.67
- TAGCGTAGGTCATGGGCCAGTATACCACGCGAAC: 2.38
- CCGACTGGGACAGAAAGGTTACCATACCATCCGG: 1.19
- CGTCCACGGTCAGCAGGTCAGTGAAAGCGACGTG: 1.22
- GCTTGTAGATCAAGGATAAGAAAGACTAAGCTAA: 0.0456
- CGTCCAAGGTGAGAGAGGTCAGTGAATGCCGAGT: 3.33
- CAAACTAGGTCAAATGTCAAAGTCGAGCCAACCA: 3.36
- CTCGACAGGTCGTGCTCAGGTGAGTATACCAAAC: 3.08
- CCGACTGGGGCATAAGGTTACCATGAGCCAGCCC: 2.05
- ACAGACAGGTGAGTGAAGGAAACTCAGCTGGACG: -0.366
- CGTCAAAGTTCAACTAAGGTAACGTTAAGCACGC: 5.42
- CAAACTAGGGCAAAGGTCAAAGTCGAGCCAACCA: 3.87
- CCTACTGGGCCAAAGGTCATGGATTCCAATGCTC: 3.73
- TCGAGTAGGTTCCCAATGGGGCATTCAGCTTTCT: -0.435
- TCTATTAGTTAATTAGGGCAACCGAAACAGCGGA: 1.05
- AGAACGAGGGCACGATGAGTTGATAGCAGAGTAG: 2.03
- GCTCGGAGGACAACGTCAGAGCTTTGTCCGTAGA: 0.242
- ACTATTCGTTGACTTAGGGCAACCGATACGACGC: 0.912
- GCTAGTTGGTCAGTAAAAGGGCACACACCGGTCG: 0.395
- TCTATTAGTTGATTACGGCAACCGAAACAGCGGA: 0.122
- ACCTCTAGGTAACCAAGTTCAGTGAATGCCGAAC: 1.25
- AGTCAAAGTTCAGGACGAGGTTACGTAAAGCACG: 3.92
- TGTCAAAGTTCAAAGGTAACGTACGTATCCACAC: 2.98
- TCTTGTAGATCAAATGTTAAGAAAGCCGAAGCCT: -0.551
- CCTAGTTGGTCAGGAGGGCACACACCGGATATGA: 0.623
- CCTAGTTGGTCAGGAGGTCACACCCCGGATATGA: 3.74
- CCTTACGGGTCACTCCAGGTGATAGCATCGGAGT: 4.81
- CCGACTGGGCCAAAAAGGTCATTGATGCCGATAA: 3.14
- CCGAGTGGGGCAAAGGTTACCATACTCAGTACGA: 1.86
- CAAACTAGGTCAAGGTCAAAGACGGTTTGTGCCA: 4.34
- CAAACTAGGTCAAAGGTCAAAGTCGAGCCAACCA: 4.74
- CCTCGGAGGACAACAGGCGGTCAGAGCTGCCAGA: 0.64
- ATCTCTAGCTAACAAGTTCAGTGAAAGAGAGGAC: 1

* * *

System: PXR homodimer (NR concentration 270 nM)
Experiment: PBM binding z-score (relative to random genomic background probes); higher = stronger binding; sequences stand for … in GC…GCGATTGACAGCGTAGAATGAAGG
Let's look at some sequences and their measured PBM binding z-score.
endpoint label: PBM binding z-score

* TGAATGAGGTTAAAGATCAGTGAACGTGGCGTCG | 0.152
* TGTCAAAGTTCAAAGGTAGCGTAAGTATCCACAC | 3.16
* ATCTCTGGGTAAGACTCAGTTCAGTGAAGAACGC | 1.54
* CCTACTGGGCCAAAAGTCATTGATTCCAATGCTC | -0.589
* ATTTCTAGGTAACAAGTTCAGTGAAAGAGAGGAC | 2.69
* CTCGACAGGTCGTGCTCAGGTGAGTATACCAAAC | -0.328

* * *

Test system: RXRa DBDmut IVT, anti-RXR (DBD mutation: RXRa K156A/R161A, NR concentration 90 nM)
Assay: PBM binding z-score (relative to random genomic background probes); higher = stronger binding; sequences stand for … in GC…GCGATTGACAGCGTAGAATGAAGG
Threshold rule: PBM binding z-score greater than or equal to 0.7 is T; below that, F.

* CCGACTGGGGCAAGGTTGCCATAACGCACAGCCA | F
* GCTTGTAGATCAAGGTGAAGAAAGACTAAGCTAA | F
* CGAACTAGGTCATCCAGGACACTGAATACATTGA | T
* AATACAGAGTCATCGTAGGCCAGAGTACGCACAG | F
* TCTCGGAGGACACGAAAGGTCAGAGCTCGACATC | T
* CAAACTAGGTCACGGAAGGTCAAAGTCGAATGAC | T
* AATAGAGGGTCACTAGGCCAGAGTAGGTACGAAT | T
* TCTAGTTGGTCACGGACGTCACACACGACGGGTA | F
* TCTATTAGTTGATGGGCAACCGACGAGTCCGTTT | T

* * *

System: PXR:RXRa (NR concentration 270 nM, RXRa partner concentration 90 nM)
Assay: PBM binding z-score (relative to random genomic background probes); higher = stronger binding; sequences stand for … in GC…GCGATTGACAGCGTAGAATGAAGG
Decide by PBM binding z-score: equal to or exceeding 0.6 means 1.0, less means 0.0.

• TCGAGTAGGTTACCAATGGGGCATTCACCTTTCT = 0.0
• TCTCTGAGGACACGAAAGGTCAGAGCTCGACATC = 1.0
• CCGACTGGGGCAAGGTTACCGTAACGCACAGCCA = 0.0
• GATACAGGGTCAGCTCGAGGCCAGAGTATGGAAA = 1.0
• TCTTTTAGTTGATTAGGGCAACCGAAACAGCGGA = 1.0
• TCAAATAGGTAAAAGGTGAAAGTCGGTGTGGTAA = 1.0
• TAGCCTAGGTCATGCGGGCAAGTATAGTGTCGGC = 1.0
• TCTTGTAGATCAAGCAGGTTATGAAAGCCTGAGT = 0.0
• AGAATGAGATTAAGATCAGGGAAACAGAATACAT = 0.0
• TCGAGTAGGTTACCAATAGGGCATTCAGCTTTCT = 0.0
• TCTTGTAGATCAAAGGTTAAGAAGGCCGAAGCCT = 1.0
• ACTAGTTGGACAGCTGAGGTCACACACAATTCGG = 1.0
• CAAACTAGATCACCGGAAGGTCAAAGTCCGCATG = 1.0
• TCTATTAGATGATTAGGGCAACCGAAACAGCGGA = 0.0
• ATATGTAGGTTAGCTGGGCTCATTCAGACTAGGC = 0.0
• CCTAGCAGGCCAGGGTCACTCAAGCATTTCGCTT = 1.0
• CTAGCAAGGTGAACAAGGTCGTTGATTACTATTC = 1.0
• TTGAGTAGGTTAGTCGGGGCATTCAGCCAACATA = 1.0
• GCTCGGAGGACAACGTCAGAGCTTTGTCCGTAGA = 0.0
• CCGACTGGTGCAGAAAGGTTACCATACCATCCGG = 1.0
• ATATGTAGGTTACATCCGGTTCATTCAGGCTATG = 1.0
• GTTCGGAGGACAAGGTCAGAGCTTTGTCCGTAGA = 1.0
• GCTATTAGTTGAAAGGGCAACCAAATGATTCTCG = 1.0
• ATCGAAAGATCGTGAGGTGAGTATACAGAAAGGC = 0.0
• ATCTCTAGGCAAAAGTTCAGTGAATCCCGAGGAT = 1.0
• CGTCCAAGGTTAAAGGTCAGTGAAGAGATGACGG = 1.0
• ATCGAAAGTTCGAAGGTGAGTATACCCACCCGAA = 1.0
• ATATGTAGGTTAAGGGTCATTCAGGTTGGTTCGC = 1.0
• ACTATTAGGTGACTTAGGGCAACCGATACGACGC = 0.0
• GCGACGGGGGCAAAGCAGGTTACCATAAGGTTGG = 1.0
• CCGACTGGGGCAGATAGGTTACCATACCATCCGG = 0.0
• TCTATTAGTTGAAGGGCCACCGACGAGTCCGTTT = 0.0
• TCTAGCAGGCCAGATGGTCACTCAAGAGGTACGG = 0.0
• TCTTTTAGATCAACAGGAGGTTAAGAAAGATCGA = 1.0
• GGAAAGAGGGCAAGTTGATAGCAGAGTTTGATGG = 1.0
• CGTCCACGGTCAGAGAGGTCAGTGAATGCCGAGT = 1.0
• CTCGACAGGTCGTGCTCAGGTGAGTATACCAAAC = 0.0
• CCTCGGAGGACCACAGGAGGTCAGAGCTGCCAGA = 1.0
• CCGACTGGGGCAGAATGGTTACCATACCATCCGG = 0.0
• CGAACTAGGTCATTCAGGACAGTGAATACATTGA = 1.0
• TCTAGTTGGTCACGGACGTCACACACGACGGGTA = 0.0
• CGAACTAGGTCAGAACAGGTCAGTGAAGGATGAT = 1.0
• CTCGAAAGTTCGTGCTCAGGTGAGTATACCAAAC = 1.0
• CCTCGGAGGACAGACGGTCAGAGCTGTCCGCTTT = 0.0
• TATATAGGGTCAAAGGCCAGAGTACGAATGTCGA = 1.0
• AGTCAAAGTTCACTAGTTAACGTAAGATTCAGCT = 1.0
• TCAGACAGGTGAAGCTAACTCAGGTACGCAGTCG = 0.0
• AATACAGGGTCACTAGGCCAGGGTAGGTACGAAT = 1.0
• TGGAGTAGGTTAGGGGCATTCAGAATGGCGTCGA = 1.0
• AATACAGGGTCACTAGGCCAGATTAGGTACGAAT = 1.0
• CCAGACAGGTGAAAGGTAGCTCAGTCTGGTACGC = 0.0
